Target Desc: Prostaglandin G/H synthase 2 (Homo sapiens, UniProt P35354)
Sequence (P35354 whole entry): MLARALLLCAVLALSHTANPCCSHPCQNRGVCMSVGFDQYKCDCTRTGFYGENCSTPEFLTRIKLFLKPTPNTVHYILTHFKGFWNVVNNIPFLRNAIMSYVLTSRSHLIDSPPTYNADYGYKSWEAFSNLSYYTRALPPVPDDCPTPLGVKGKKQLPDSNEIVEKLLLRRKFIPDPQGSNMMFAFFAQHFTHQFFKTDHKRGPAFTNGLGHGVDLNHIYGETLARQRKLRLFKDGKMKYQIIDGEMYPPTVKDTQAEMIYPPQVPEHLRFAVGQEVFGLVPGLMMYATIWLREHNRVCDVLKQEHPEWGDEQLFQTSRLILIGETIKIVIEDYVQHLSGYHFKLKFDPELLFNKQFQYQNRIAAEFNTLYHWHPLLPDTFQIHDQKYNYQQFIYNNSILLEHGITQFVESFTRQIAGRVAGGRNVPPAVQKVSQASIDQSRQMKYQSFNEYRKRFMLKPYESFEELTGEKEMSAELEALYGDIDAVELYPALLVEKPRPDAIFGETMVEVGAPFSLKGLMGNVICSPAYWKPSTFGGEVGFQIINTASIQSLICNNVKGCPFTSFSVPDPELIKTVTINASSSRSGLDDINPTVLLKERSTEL
Protocol Description: Inhibition of human recombinant COX2 expressed in baculovirus infected SF21 cell
Readout Label: IC50 (µM)

Incoming: Read off the recorded IC50 for CC(=O)N1N=C(c2ccc(S(C)(=O)=O)cc2)CC1c1ccc(Cl)cc1 (centres undefined)
Outgoing: 21.7

1 = CC(=O)N1N=C(c2ccc(S(C)(=O)=O)cc2)CC1c1ccc(C(F)(F)F)cc1 (centres undefined)
2 = CS(=O)(=O)c1ccc(C2=NN(C(N)=S)C(c3ccccc3)C2)cc1 (centres undefined)
Incoming: I'm curious whether 1 or 2 has the smaller IC50 number. Which is it? Lab note: record the label of whichever item you select.
Outgoing: 1

I = CC(=O)N1N=C(c2ccc(S(C)(=O)=O)cc2)CC1c1ccc(C)cc1 (centres undefined)
II = Cc1ccc(C2CC(c3ccc(S(C)(=O)=O)cc3)=NN2C(N)=S)cc1 (centres undefined)
III = CC(=O)N1N=C(c2ccc(S(C)(=O)=O)cc2)CC1c1ccccc1OCc1ccccc1 (centres undefined)
IV = CC(=O)N1N=C(c2ccc(S(C)(=O)=O)cc2)CC1c1ccc(F)cc1 (centres undefined)
Incoming: Rank the items in ascending order with respect to IC50. Form entry: labels listed in requested order.
Outgoing: III, I, IV, II
(III: 3.2 µM, I: 6.77 µM, IV: 19.6 µM, II: 31.9 µM)
